The measured values listed here are drawn from ChEMBL document CHEMBL3421622.

test: Antioxidant activity assessed as thiol peroxidase-like activity assessed as time required to oxidize 50% of benzenethiol during reduction of hydrogen peroxide measured for 180 secs by UV spectroscopic analysis; details: 0.05 h
readout: t50 (min)

>>> data_value("Cc1ccc([Se]C[C@H]2O[C@@H](n3cc(C)c(=O)[nH]c3=O)C[C@@H]2N=[N+]=[N-])cc1")
22.5
>>> data_value("Cc1cn([C@H]2C[C@H](N=[N+]=[N-])[C@@H](C[Se]c3cccc4ccccc34)O2)c(=O)[nH]c1=O")
66.3
>>> data_value("Cc1cn([C@H]2C[C@H](N=[N+]=[N-])[C@@H](C[Se]c3ccc(Cl)cc3)O2)c(=O)[nH]c1=O")
15.2
>>> data_value("Cc1cc(C)c([Se]C[C@H]2O[C@@H](n3cc(C)c(=O)[nH]c3=O)C[C@@H]2N=[N+]=[N-])c(C)c1")
97.5
>>> data_value("Cc1cn([C@H]2C[C@H](N=[N+]=[N-])[C@@H](C[Se]c3ccccc3)O2)c(=O)[nH]c1=O")
56.4
>>> data_value("Cc1cn([C@H]2C[C@H](N=[N+]=[N-])[C@@H](CO)O2)c(=O)[nH]c1=O")
66.5
